- Tested Target: Ectonucleotide pyrophosphatase/phosphodiesterase family member 1 (Homo sapiens)
- Sequence (P22413 whole entry): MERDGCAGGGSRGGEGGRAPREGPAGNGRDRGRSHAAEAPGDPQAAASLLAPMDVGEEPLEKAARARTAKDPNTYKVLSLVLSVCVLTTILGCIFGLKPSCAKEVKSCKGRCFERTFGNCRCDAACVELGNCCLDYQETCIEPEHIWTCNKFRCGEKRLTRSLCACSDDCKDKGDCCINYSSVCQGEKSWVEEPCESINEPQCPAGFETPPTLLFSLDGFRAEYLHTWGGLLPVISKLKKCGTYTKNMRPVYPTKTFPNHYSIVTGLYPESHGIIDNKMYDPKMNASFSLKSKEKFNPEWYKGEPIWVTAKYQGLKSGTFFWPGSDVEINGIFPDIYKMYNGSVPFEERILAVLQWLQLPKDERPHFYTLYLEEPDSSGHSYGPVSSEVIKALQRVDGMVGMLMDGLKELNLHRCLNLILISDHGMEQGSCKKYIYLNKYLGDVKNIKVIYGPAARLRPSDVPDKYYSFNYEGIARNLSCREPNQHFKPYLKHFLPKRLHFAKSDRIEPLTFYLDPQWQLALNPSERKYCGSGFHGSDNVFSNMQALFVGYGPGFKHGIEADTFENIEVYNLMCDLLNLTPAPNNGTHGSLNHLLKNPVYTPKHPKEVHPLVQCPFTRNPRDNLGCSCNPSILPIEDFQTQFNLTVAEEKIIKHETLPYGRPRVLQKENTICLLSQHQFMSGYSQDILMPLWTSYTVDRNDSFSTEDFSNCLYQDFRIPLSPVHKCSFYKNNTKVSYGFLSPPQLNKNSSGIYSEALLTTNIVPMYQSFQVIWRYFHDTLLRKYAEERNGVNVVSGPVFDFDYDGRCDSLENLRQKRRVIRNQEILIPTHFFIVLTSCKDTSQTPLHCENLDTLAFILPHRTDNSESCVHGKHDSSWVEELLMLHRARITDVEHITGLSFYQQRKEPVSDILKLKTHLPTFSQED
- Protocol Text: Inhibition of recombinant human ENPP1 transfected in HEK293T cells using cGAMP as substrate at pH 7.5 measured after 3.5 hrs by luminescence based AMP-glo assay
- Assay type: cell-based
Readout Type: pIC50
// pIC50 here means minus log10 of the molar concentration (mol/L)

## Input Look at this compound and give its reported pIC50. `COc1cccc2c(N3CCC(O)(CNS(N)(=O)=O)CC3)ncnc12`
## Output 8.09

## Input And `COc1cccc2c(N3CCC(F)(CNS(N)(=O)=O)CC3)ncnc12` ?
## Output 7.83

## Input Same question for COc1cccc2c(N3CCC4(CC3)CC(NS(N)(=O)=O)CO4)c(C#N)cnc12 (stereo not given) please.
## Output 6.24

## Input Now the compound COc1cccc2c(N3CCC4(CC(NS(N)(=O)=O)C4)C3)ncnc12 (stereo not given)
## Output 7.83

## Input Same question, COc1cccc2c(N3CC4CC3CC4CNS(N)(=O)=O)c(C#N)cnc12 (stereo not given) this time
## Output 7.26

## Input Now consider `Cn1nc(Cc2ccc(NS(N)(=O)=O)cc2)c2ccccc2c1=O` and answer again.
## Output 5.86

## Input And then `COc1cccc2c(NC34CC(NS(N)(=O)=O)(C3)C4)ncnc12` , what is it?
## Output 7.02

## Input Moving on to the next compound: COc1cccc2c(NC3CCC(NS(N)(=O)=O)CC3)c(C#N)cnc12 (stereo not given)
## Output 7.39

## Input // query: `COc1cccc2c(N[C@H]3CC[C@H](NS(N)(=O)=O)CC3)ncnc12`
## Output 6.43

## Input Then this compound: `COc1cccc2c(N[C@H]3CC[C@@H](NS(N)(=O)=O)CC3)c(C#N)cnc12`
## Output 7.74

## Input How about this compound: COc1cccc2c(NC3CCC(NS(N)(=O)=O)CC3)ncnc12 (stereo not given)
## Output 6.81

## Input How about `COc1cccc2c(N3CCC(O)(CCNS(N)(=O)=O)CC3)ncnc12` ?
## Output 6.52

## Input What do you have for `COc1cccc2c(N3CCC4(CC3)CC(NS(N)(=O)=O)C4)c(C#N)cnc12` ?
## Output 6.43

Data origin: ChEMBL document CHEMBL6114998
